Molecular target: Alpha-2C adrenergic receptor (Homo sapiens) (UniProt P18825)
Sequence (P18825 whole entry, looked up): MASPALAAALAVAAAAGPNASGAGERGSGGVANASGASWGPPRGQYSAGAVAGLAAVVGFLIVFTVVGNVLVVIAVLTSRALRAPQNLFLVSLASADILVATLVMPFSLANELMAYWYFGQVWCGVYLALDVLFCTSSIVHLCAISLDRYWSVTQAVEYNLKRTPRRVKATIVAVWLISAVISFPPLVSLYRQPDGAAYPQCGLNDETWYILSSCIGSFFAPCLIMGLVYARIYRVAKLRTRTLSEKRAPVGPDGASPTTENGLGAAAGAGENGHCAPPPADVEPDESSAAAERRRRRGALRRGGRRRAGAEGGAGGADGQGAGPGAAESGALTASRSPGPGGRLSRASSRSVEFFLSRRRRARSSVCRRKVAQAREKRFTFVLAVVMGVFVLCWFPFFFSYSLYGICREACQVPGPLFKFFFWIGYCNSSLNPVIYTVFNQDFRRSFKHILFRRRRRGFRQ
Assay: compounds altering alpha2C-coupled GIRK flux – cell-based, HEK293 alpha2C/GIRK1/2, thallium flux, primary screen (AID 624);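 note: slope of fluorescence ratio to pre-addition baseline per second over 15 to 24 s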
Conditions: thallium flux BTC fluorescence, at 10 µM, actives lie on both sides
Reported Property: slope
// no unit string in output, number only

Answered examples (6):
[[record]]
molecule = "NC(=O)c1cc(-c2ccccc2)nc(N2CCOCC2)n1"
reported_property = "slope"
observed_measurement = 0.00656

[[record]]
molecule = "CC(N)C12CC3CC(C1)CC(C(C)N)(C3)C2 (stereo unspecified)"
reported_property = "slope"
observed_measurement = 0.00438

[[record]]
molecule = "O=C(Nc1cccc2ncccc12)c1ccc2c(c1)OCCO2"
reported_property = "slope"
observed_measurement = 0.00308

[[record]]
molecule = "CC(C)N(Cc1nc(-c2ccccc2)no1)C(=O)CCCN1C(=O)c2ccccc2C1=O"
reported_property = "slope"
observed_measurement = 0.00616

[[record]]
molecule = "CCCCOC(=O)C1=C(C)Nc2ncnn2C1c1cccc(OC)c1OC (stereo unspecified)"
reported_property = "slope"
observed_measurement = 0.00417

[[record]]
molecule = "Cc1ccc(S(=O)(=O)N2CCN(C(=O)c3cc(=O)[nH]c4ccccc34)CC2)c(C)c1"
reported_property = "slope"
observed_measurement = 0.00525


// slope lookup, molecule = O=C(Nc1ccc(SC(F)F)cc1)c1ccc2nccnc2c1 , result: 0.00714

// slope lookup, molecule = CCc1nnc(NC(=O)CSc2nnc(-c3ccoc3C)n2CC(C)C)s1 , result: 0.0051

// slope lookup, molecule = Cn1c(=O)[nH]c(=O)c2c1nc(N1CCCCCC1)n2CCCSc1nc2ccccc2o1 , result: 0.00527

// slope lookup, molecule = Cc1cc2ncc(-c3ccc(Cl)cc3)c(N)n2n1 , result: 0.00574

// slope lookup, molecule = COc1ccc(-c2noc(CSc3nc4ccccc4c(=O)n3-c3ccccc3)n2)cc1OC , result: 0.0108
